- Target: WWP3 WW domain expressed as GST fusion protein (Homo sapiens, UniProt Q96QZ7)
- Construct: made in house
- Sequence (Q96QZ7 300-337 limits assumed): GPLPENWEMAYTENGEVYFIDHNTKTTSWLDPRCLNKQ
- Assay overview: ELISA based cross affinity mapping, WWP3 WW domain
- Assay type: binding
- Measurement setup: biotinylated peptide-streptavidin/alkaline phosphatase complex
No end group written: not given here. *: point of attachment. Biotin = O=C1N[C@H]2[C@H](CS[C@H]2CCCCC(=O)*)N1

| Substance | binding to WWP3 WW domain |
| --- | --- |
| Biotin-SGSGPGTPPPPYTVGPGY [WBP-1] | not |
| biotin - PGTPPPKYNTLRL [ENaCγ] | positive interaction |
| biotin - PGTPPPNYDSLRL [ENaCβ] | positive interaction |
| Biotin-SGSGPGTPYPPPPEFY [WBP-2B] | not |

----------
- Test system: WW domains of WWP4 expressed as GST fusion proteins
- Assay overview: ELISA based cross affinity mapping, WW domains of WWP4
- Format: binding, human
- Measurement setup: biotinylated peptide-streptavidin/alkaline phosphatase complex; GST fusion proteins; ELISA
No end group written: not given here. *: point of attachment. Biotin = O=C1N[C@H]2[C@H](CS[C@H]2CCCCC(=O)*)N1
Measurement kind: binding to WW domains of WWP4

Worked cases, answers included:
| Substance | Observed |
| --- | --- |
| biotin - PGTPPPKYNTLRL [ENaCγ] | positive interaction |
| ENaCβ-Y618H: mutant ENaCβ peptide, Liddle syndrome missense substitution, PPPNY to PPPNH (PGTPPPNHDSLRL) | do not bind |
| Biotin-SGSGPGTPPPPYTVGPGY [WBP-1] | specifically bind |
| Biotin-SGSGYVQPPPPPYPGPM [WBP-2A] | specifically bind |
| biotin - PGTPPPNYDSLRL [ENaCβ] | positive interaction |

Okay, next one:
Fill in: binding to WW domains of WWP4 of ENaCβ-P616L: mutant ENaCβ peptide, Liddle syndrome missense substitution, PPPNY to PPLNY (PGTPPLNYDSLRL) is ___
do not bind
